- Test system: KB-3-1
- test-name: Cytotoxic Profiling of Annotated Libraries Using Quantitative High-Throughput Screening (AID 1296008); further: on the % scale 0 is the no-effect control and ±100 the full control effect; nearly all actives have a fitted effect of over 60% in size
- applied-conditions: Five cell lines viability, CellTiter-Glo ATP luminescence, 48-72 h; hits give low values
Inconclusive results are not listed.
readout-label: max response (%)

>>> readout_number("CCCCCCOC(=O)c1cccnc1")
6.05
>>> readout_number("CC(C)=CCC/C(C)=C/C=C/C(C)=C/C=C/C(C)=C/C=C/C=C(C)/C=C/C=C(C)/C=C/C=C(\\C)CCC=C(C)C")
-16.3
>>> readout_number("O=C(CCCN1CCN2CCCC2C1)c1ccc(F)cc1 (centres undefined)")
3.11
>>> readout_number("O=P(O)(O)OP(=O)(O)OP(=O)(O)O")
-3.72
>>> readout_number("CCCc1nc(C(C)(C)O)c(C(=O)OCc2oc(=O)oc2C)n1Cc1ccc(-c2ccccc2-c2nn[nH]n2)cc1")
-0.562
>>> readout_number("CN1C(C(=O)Nc2ccccn2)C(=O)c2sc(Cl)cc2S1(=O)=O (centres undefined)")
5.88
>>> readout_number("CC(C)(C)NCC(O)c1ccc(O)c(CO)n1 (centres undefined)")
-3.71
>>> readout_number("CC(O)CN(C)C (centres undefined)")
-6.37
>>> readout_number("Cc1ccc(S(=O)(=O)NC(=O)N[C@@H](C)Cc2ccccc2)cc1")
4.03
>>> readout_number("CN[C@@H]1[C@@H](O)[C@@H](O[C@@H]2[C@@H](O)[C@H](O[C@H]3O[C@H](CN)[C@@H](O)[C@H](O)[C@H]3O)[C@@H](N)C[C@H]2NC(=O)C(O)CN)OC[C@]1(C)O (some centres undefined)")
36
>>> readout_number("CCN(CC)C(=S)S")
3.72
>>> readout_number("C[C@@H]1O[C@@H](OC[C@H]2O[C@@H](Oc3c(-c4ccc(OCCO)c(OCCO)c4)oc4cc(OCCO)cc(O)c4c3=O)[C@H](O)[C@@H](O)[C@@H]2O)[C@H](O)[C@H](O)[C@H]1O")
-2.8
>>> readout_number("O=c1[nH]c(=O)n([C@H]2C[C@H](O)[C@@H](CO)O2)cc1/C=C/Br")
1.96
>>> readout_number("CSc1nc2cc(Oc3cccc(Cl)c3Cl)c(Cl)cc2[nH]1")
-1.84
>>> readout_number("FC(F)(F)C(F)(F)C(F)(F)C(F)(F)C(F)(F)C(F)(F)F")
6.4
>>> readout_number("O=S(=O)(O)CC(S)CS (centres undefined)")
3.44
>>> readout_number("CC(C)CCC[C@@H](C)[C@H]1CC(=O)C2=C3CC[C@H]4C[C@@H](O)CC[C@]4(C)[C@H]3CC[C@@]21C")
-6.65
>>> readout_number("O=C(O)C1=C(CSc2nnnn2CS(=O)(=O)O)CS[C@@H]2[C@H](NC(=O)[C@H](O)c3ccccc3)C(=O)N12")
3.59
>>> readout_number("CCSc1ccc2c(c1)N(CCCN1CCN(C)CC1)c1ccccc1S2")
-2.13
>>> readout_number("CC(C)CCCC(C)NC(C)C (centres undefined)")
0.846
>>> readout_number("O=P(O)(O)CP(=O)(O)O")
-3.6
>>> readout_number("c1ccc2ccccc2c1")
-0.155
>>> readout_number("NC[C@@H]1CC[C@@H](N)[C@@H](O[C@H]2[C@H](O)[C@@H](O[C@H]3O[C@H](CO)[C@@H](O)[C@H](N)[C@H]3O)[C@H](N)C[C@@H]2N)O1")
0.761
>>> readout_number("ClC(Cl)Cl")
3.29
>>> readout_number("CC(CCc1ccc(O)cc1)NCC(O)c1ccc(O)cc1 (centres undefined)")
9.04
>>> readout_number("CO/N=C(\\C(=O)N[C@@H]1C(=O)N2C(C(=O)[O-])=C(C[n+]3cccc4c3CCC4)CS[C@H]12)c1csc(N)n1")
-1.98
>>> readout_number("NC[C@H]1O[C@H](O[C@H]2[C@H](O)[C@@H](O[C@H]3O[C@H](CO)[C@@H](O)[C@H](N)[C@H]3O)[C@H](N)C[C@@H]2N)[C@H](N)C[C@@H]1O")
-4.68
>>> readout_number("S=C=Nc1ccc(N=C=S)cc1")
-15.9
>>> readout_number("FC(F)(F)COCC(F)(F)F")
-9.66

These entries and their values trace back to PubChem BioAssay (NCATS).
